// reported pKd for each item listed
Molecular target: T1, human a-Mesothelin (Acro Biosystems; MSN_H5223) (human, UniProt Q13421 296-580, limits assumed)
T1 construct: Bought protein immobilised on the SPR chip; Printed as 'a-Mesothelin' but used as the antigen for the anti-MSLN scFvs; also called Human MSLN; MSLN
T1 sequence (Q13421 other isoform, or with tags, fused parts or gaps limits assumed): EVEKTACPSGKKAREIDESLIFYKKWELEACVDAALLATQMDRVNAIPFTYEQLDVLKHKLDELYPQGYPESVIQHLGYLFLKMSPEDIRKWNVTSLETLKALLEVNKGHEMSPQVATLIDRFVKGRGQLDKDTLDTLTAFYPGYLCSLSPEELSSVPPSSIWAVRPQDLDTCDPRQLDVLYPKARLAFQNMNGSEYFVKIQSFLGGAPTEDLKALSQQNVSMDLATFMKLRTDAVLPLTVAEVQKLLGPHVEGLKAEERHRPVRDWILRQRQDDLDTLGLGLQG
Test: SPR, mesothelin immobilised, scFv analyte, 1:1 fit
Note on units: pKd is unitless, being -log10 of a concentration expressed in mol/L.

PRO3321 (scFv 54-21-H03-sc01_(L12R, T101S, L144A, T146Q)) (scFv, PRO1922 variant; VH substitutions, AHo numbering; also called PRO1922 L12R-T101S-L144A-T146Q) scFv: DIQMTQSPSSLSASVGDRVTITCQASESIYSSLAWYQQKPGKAPKLLIYLASTLASGVPSRFSGSGSGTDFTLTISSLQPEDFATYYCQSTDYTTSTHRNSFGTGTKVTVLGGGGGSGGGGSGGGGSGGGGSEVQLVESGGGRVQPGGSLRLSCAASGFSFSTTYYMCWVRQAPGKGLEWIGCTNTASSVRTYYATWAKGRFTISRDNSKNTVYLQMNSLRAEDSAVYYCARDMGFADYALNLWGQGTAVQVSS	8.77
PRO3347 (scFv 54-21-H03-sc01_(T101S, T146S)) (scFv, PRO1922 variant; VH substitutions, AHo numbering; also called PRO1922 T101S-T146S) scFv: DIQMTQSPSSLSASVGDRVTITCQASESIYSSLAWYQQKPGKAPKLLIYLASTLASGVPSRFSGSGSGTDFTLTISSLQPEDFATYYCQSTDYTTSTHRNSFGTGTKVTVLGGGGGSGGGGSGGGGSGGGGSEVQLVESGGGLVQPGGSLRLSCAASGFSFSTTYYMCWVRQAPGKGLEWIGCTNTASSVRTYYATWAKGRFTISRDNSKNTVYLQMNSLRAEDSAVYYCARDMGFADYALNLWGQGTLVSVSS	8.77

Read the next record carefully.
Returns the measured pKd for the input binder. Input: PRO2991 (scFv 54-21-H03-sc01_(T101A)) (scFv, PRO1922 variant; VH substitution, AHo numbering; also called PRO1922 T101A) scFv: DIQMTQSPSSLSASVGDRVTITCQASESIYSSLAWYQQKPGKAPKLLIYLASTLASGVPSRFSGSGSGTDFTLTISSLQPEDFATYYCQSTDYTTSTHRNSFGTGTKVTVLGGGGGSGGGGSGGGGSGGGGSEVQLVESGGGLVQPGGSLRLSCAASGFSFSTTYYMCWVRQAPGKGLEWIGCTNTASSVRTYYATWAKGRFTISRDNSKNTVYLQMNSLRAEDAAVYYCARDMGFADYALNLWGQGTLVTVSS
8.54
